The variants listed here are annotated with their abundance fitness.
B1: Intersectin-1, residues 1156 to 1213; numbered along this chain, Q15811 (parent)
chain: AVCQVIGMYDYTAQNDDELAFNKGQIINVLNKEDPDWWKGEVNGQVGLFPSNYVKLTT

# Variants of: B1
# measurementDescription: abundance fitness (aPCA) (normalised: wild type 0, dead -1); higher = more abundant; growth selection in yeast, the domain comes from the species named
# recordedConditions: Homo sapiens
observationType: abundance fitness

mutationcode=D34I observed=-0.974
mutationcode=D16A observed=-0.232
mutationcode=D10N observed=-0.227
mutationcode=N52S observed=-0.075
mutationcode=V29R observed=-0.9
mutationcode=N31M observed=-0.275
mutationcode=N22M observed=0.02
mutationcode=D36L observed=-0.072
mutationcode=G24P observed=-0.825
mutationcode=V42Y observed=0.042
mutationcode=W38M observed=-0.733
mutationcode=E33D observed=-0.047
mutationcode=D10Y observed=-0.838
mutationcode=N15E observed=-0.17
mutationcode=M8N observed=-0.576
mutationcode=Y53N observed=-0.54
mutationcode=T58G observed=0.053
mutationcode=V42P observed=-0.72
mutationcode=L48V observed=-0.068
mutationcode=V46F observed=-0.463
mutationcode=L19K observed=-0.908
mutationcode=M8Q observed=0.31
mutationcode=E33S observed=-0.101
mutationcode=A13F observed=-0.592
mutationcode=Q45A observed=0.016
mutationcode=T12D observed=-0.203
mutationcode=N31S observed=0.006
mutationcode=D16T observed=-0.232
mutationcode=G40H observed=-0.832
mutationcode=E41H observed=-0.495
mutationcode=K55P observed=-0.797
mutationcode=V54G observed=-0.836
mutationcode=L56F observed=-0.124
mutationcode=K32M observed=-0.039
mutationcode=D34F observed=-0.554
mutationcode=N22E observed=0.174
mutationcode=F49E observed=-0.816
mutationcode=N28A observed=-0.225
mutationcode=A13N observed=-0.839
mutationcode=P50V observed=-0.929
mutationcode=V42D observed=-0.663
mutationcode=A20M observed=-0.545
mutationcode=D10P observed=-0.246
mutationcode=W37M observed=0.004
mutationcode=Y9T observed=0.257
mutationcode=F21Y observed=-1.06
